Here, each record is paired with measured R/S data.
Tested on: Hydrilla PDS Arg^304 → Threonine
Experiment: Cross resistance to bleaching herbicides, in vitro PDS inhibition, non-His-tagged (Table 2)
Format: biochemical, Hydrilla verticillata
Details: Threonine at 304 relative to Arginine; Table 2

MOLECULE | TESTED SYSTEM | R/S
CNC1=C(c2cccc(C(F)(F)F)c2)C(=O)C(c2ccccc2)O1 (stereo not drawn) | Hydrilla PDS Arg^304 → Threonine | 2.9
O=C1C(Cl)C(CCl)CN1c1cccc(C(F)(F)F)c1 (stereo not drawn) | Hydrilla PDS Arg^304 → Threonine | 4.3
CNc1cnn(-c2cccc(C(F)(F)F)c2)c(=O)c1Cl | Hydrilla PDS Arg^304 → Threonine | 52.0
O=C(Nc1ccc(F)cc1F)c1cccnc1Oc1cccc(C(F)(F)F)c1 | Hydrilla PDS Arg^304 → Threonine | 0.2
O=C(Nc1ccc(F)cc1)c1cccc(Oc2cccc(C(F)(F)F)c2)n1 | Hydrilla PDS Arg^304 → Threonine | 0.5
CCC(Oc1ccc(F)c(C(F)(F)F)c1)C(=O)NCc1ccccc1 (stereo not drawn) | Hydrilla PDS Arg^304 → Threonine | 0.3

----------
Target: hydrilla PDS Arg^304 → Histidine, His-tagged (Hydrilla verticillata, UniProt Q66PY0, R304H)
Sequence (Q66PY0 77-580 R304H): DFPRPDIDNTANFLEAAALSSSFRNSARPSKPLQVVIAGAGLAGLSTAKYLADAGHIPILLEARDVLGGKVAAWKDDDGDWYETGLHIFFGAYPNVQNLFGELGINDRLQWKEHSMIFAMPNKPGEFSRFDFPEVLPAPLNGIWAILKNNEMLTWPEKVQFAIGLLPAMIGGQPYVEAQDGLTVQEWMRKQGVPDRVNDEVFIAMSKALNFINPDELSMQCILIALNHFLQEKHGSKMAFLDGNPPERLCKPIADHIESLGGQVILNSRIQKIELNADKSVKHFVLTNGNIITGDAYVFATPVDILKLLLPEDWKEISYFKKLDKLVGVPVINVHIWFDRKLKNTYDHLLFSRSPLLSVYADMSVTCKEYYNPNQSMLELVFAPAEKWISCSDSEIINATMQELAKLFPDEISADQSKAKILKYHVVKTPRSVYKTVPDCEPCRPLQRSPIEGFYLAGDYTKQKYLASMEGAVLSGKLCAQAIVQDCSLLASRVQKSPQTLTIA
Assay: Cross-resistance testing, His-tagged column-purified PDS (Table 2A)
Type: biochemical
Conditions: Histidine at 304; His-tagged, column-purified PDS; read-out: I50
pIC50: −log10 of the molar value.

COMPOUND | pIC50
O=C1C(Cl)C(CCl)CN1c1cccc(C(F)(F)F)c1 (stereo not drawn) | 3.44
CNC1=C(c2cccc(C(F)(F)F)c2)C(=O)C(c2ccccc2)O1 (stereo not drawn) | 3.20
CCC(Oc1ccc(F)c(C(F)(F)F)c1)C(=O)NCc1ccccc1 (stereo not drawn) | 3.90
O=C(Nc1ccc(F)cc1F)c1cccnc1Oc1cccc(C(F)(F)F)c1 | 3.99
O=C(Nc1ccc(F)cc1)c1cccc(Oc2cccc(C(F)(F)F)c2)n1 | 3.95
CNc1cnn(-c2cccc(C(F)(F)F)c2)c(=O)c1Cl | 3.31

----------
Target: hydrilla PDS Arg^304 → Cysteine (Hydrilla verticillata, UniProt Q66PY0, R304C)
Sequence (Q66PY0 1-580 R304C): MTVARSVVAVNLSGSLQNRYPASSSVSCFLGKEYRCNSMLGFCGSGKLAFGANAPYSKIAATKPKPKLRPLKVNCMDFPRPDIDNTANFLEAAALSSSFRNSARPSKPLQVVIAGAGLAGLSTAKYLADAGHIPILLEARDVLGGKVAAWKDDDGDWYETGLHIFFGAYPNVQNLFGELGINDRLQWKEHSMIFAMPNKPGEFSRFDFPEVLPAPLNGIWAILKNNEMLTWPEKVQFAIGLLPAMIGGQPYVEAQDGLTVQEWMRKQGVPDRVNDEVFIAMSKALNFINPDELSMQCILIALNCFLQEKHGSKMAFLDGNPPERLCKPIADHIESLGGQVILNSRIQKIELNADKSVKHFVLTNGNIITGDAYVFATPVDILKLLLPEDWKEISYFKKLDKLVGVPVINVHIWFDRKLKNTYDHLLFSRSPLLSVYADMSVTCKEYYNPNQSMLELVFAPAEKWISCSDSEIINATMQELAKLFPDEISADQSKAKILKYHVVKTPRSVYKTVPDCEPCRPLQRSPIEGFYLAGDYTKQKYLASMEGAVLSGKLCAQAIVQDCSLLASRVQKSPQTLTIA
Experiment: Cross resistance to bleaching herbicides, in vitro PDS inhibition, non-His-tagged (Table 2)
Conditions: Cysteine at 304; construct in frame with LacZalpha-ccdB, non-His-tagged; read-out: I50
Note to self: use t only for IC50 readings below 4 µM; a reading exactly at 4 µM still gets f.

MOLECULE | TESTED SYSTEM | DISCRETE LABEL
O=C1C(Cl)C(CCl)CN1c1cccc(C(F)(F)F)c1 (stereo not drawn) [Fluorochloridone] | hydrilla PDS Arg^304 → Cysteine (Hydrilla verticillata, UniProt Q66PY0, R304C) | f
O=C(Nc1ccc(F)cc1)c1cccc(Oc2cccc(C(F)(F)F)c2)n1 [Piconilafen, Picolinafen] | hydrilla PDS Arg^304 → Cysteine (Hydrilla verticillata, UniProt Q66PY0, R304C) | t
O=C(Nc1ccc(F)cc1F)c1cccnc1Oc1cccc(C(F)(F)F)c1 [Diflufenican] | hydrilla PDS Arg^304 → Cysteine (Hydrilla verticillata, UniProt Q66PY0, R304C) | t
CNc1cnn(-c2cccc(C(F)(F)F)c2)c(=O)c1Cl [Norflurazon] | hydrilla PDS Arg^304 → Cysteine (Hydrilla verticillata, UniProt Q66PY0, R304C) | f
CNC1=C(c2cccc(C(F)(F)F)c2)C(=O)C(c2ccccc2)O1 (stereo not drawn) [Flurtamone] | hydrilla PDS Arg^304 → Cysteine (Hydrilla verticillata, UniProt Q66PY0, R304C) | f
CCC(Oc1ccc(F)c(C(F)(F)F)c1)C(=O)NCc1ccccc1 (stereo not drawn) [Beflubutamid] | hydrilla PDS Arg^304 → Cysteine (Hydrilla verticillata, UniProt Q66PY0, R304C) | t
